Target Or System: Rap guanine nucleotide exchange factor 3 (Homo sapiens) (UniProt O95398)
Measurement Protocol: Counterscreen qHTS for agonist of cAMP-regulated guanine nucleotide exchange factor 3 (EPAC1) (AID 1645889); also: % of control where 0% means no effect; nearly all actives have a fitted effect of over 40% in size
Condition Set: EPAC1 Rap1B-BODIPY-GDP exchange, fluorescence; series mostly up to 154 µM
Text: Assay Provider (PI): Xiaodong Cheng Ph.D. The University of Texas Medical Branch, […], TX MLPCN Grant: NS066510 In multi-cellular eukaryotic organisms, the effects of cAMP are transduced by two ubiquitously-expressed intracellular cAMP receptors, the classic protein kinase A/cAMP-dependent protein kinase (PKA/cAPK) and the more recently discovered exchange protein directly activated by cAMP/cAMP-regulated guanine nucleotide exchange factor (EPAC/cAMP-GEF). […]
Results filed as inconclusive are left out. Activity calls are given as the source filed them. Calls follow the shape of the dose curve; as a rule, active = well fitted activation curve with a large enough effect; inconclusive = small, poorly fitted or top-dose-only effect, or another doubt; inactive = no such curve, though single readings can be large or run the other way.
Recorded Metric: activation

> print(dat)
                                    molecule                 value.observed
 1  C[C@@H]1ON(C)[C@H]2C[C@H]3c4[nH]c5ccc(-c6ccc7c(c6)OCO7)cc5c4CCN3C(=O)[C@@H]12    32% [at 30.8 µM] (inactive)
 2  Cc1ccc(SCC(=O)OCC(=O)N(C)CC(=O)Nc2ccc(F)cc2)cc1C  26.8% [at 30.8 µM] (inactive)
 3  CCOC(=O)C1Oc2ccccc2C(c2ccc(C)cc2)=C1C(=O)OC (stereo not given)                       inactive
 4           CCOc1nc(-c2ccccc2)c2cc(C)ccc2n1                       inactive
 5  COC(=O)c1ccc2nc(-c3ccc(C)cc3)c(Cc3ccsc3)n2c1  9.45% [at 30.8 µM] (inactive)
 6  COc1ccc(-c2csc(NC(=O)c3ccc(C(C)(C)C)cc3)c2C(=O)O)cc1                       inactive
 7  CCCCn1c(CNC(=O)C23CC4CC(CC(C4)C2)C3)nnc1SCC(=O)Nc1ccc(F)cc1                       inactive
 8  COc1c(O)cc2oc(-c3ccc(O)c(O)c3)cc(=O)c2c1O                       inactive
 9  CC(Nc1ccc(Cl)cc1)c1cc(Cl)ccc1O (stereo not given)                       inactive
10  COC(=O)c1ccc2nc(-c3ccc(F)cc3)c(Cc3ccccc3)n2c1  19.8% [at 30.8 µM] (inactive)
